Listed next: entries and their corresponding koff.
target: Anti-hC5 Antibody; assay: SPR (Biacore T200), 25 C, pH 7.4; SKA antibody captured by anti-rabbit IgG, Anti-hC5 Antibody injected 0-800 nM
Sequence (constant, as listed by the source limits assumed): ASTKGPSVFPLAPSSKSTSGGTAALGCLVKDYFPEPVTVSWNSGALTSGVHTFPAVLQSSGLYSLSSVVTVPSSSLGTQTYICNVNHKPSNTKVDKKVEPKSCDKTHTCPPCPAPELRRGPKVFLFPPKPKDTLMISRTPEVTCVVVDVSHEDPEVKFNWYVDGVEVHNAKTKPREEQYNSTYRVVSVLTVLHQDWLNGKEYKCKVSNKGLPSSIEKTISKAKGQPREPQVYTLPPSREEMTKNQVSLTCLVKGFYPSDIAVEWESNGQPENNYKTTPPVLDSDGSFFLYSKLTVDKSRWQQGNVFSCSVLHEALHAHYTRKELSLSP
The answer is to be given in s⁻¹; state only the numeric part.

The reported value for SKA0046 (antibody, V domains shown) VH: QEQLVESGGGLVQPEGSLTLTCTASGFSLSSSNYMWWVRQAPGKGLEWIACIHASSSGDTYYANWAKGRFTISKTSSTTVTLQMTSLTAADTATYFCARGGYIYGDGGYNGVAGFSLWGPGTLVTVSS VL: DVVMTQTPASVSEPVGGTVTIKCQASETIGNALAWYQQKPGQRPKLLIYGASNLESGVPSRFKGSGSGTEFTLTISDVQCDDAATYYCQSIYYSSSADTFFFPFGGGTEVVVKG in terms of koff is 5.17e-05

Lab book: koff of SKA0127 (antibody, V domains shown) VH: QSVEESGGRLVTPGTPLTLTCTVSGIDLSTYAMTWVRQAPGKGLEYIGYINGGGSAYYASWVNGRFTISKTSTTADLKITSPTTEDTATYFCARGPVGSYHRIWGPGTLVTVSS VL: ALVMTQTPSSVSEPVGGTVTINCRASEDIESYLAWYQQKPGQPPKLLIYATSNLETGVPSRFKGSGSGTDYTLTISGVQCADAATYYCQGYYELSSIDNNAFGGGTEVVVKG noted as 0.000254

According to the records, this binder SKA0052 (antibody, V domains shown) VH: QSLEESGGDLVKSGASLTLTCTASGFSFSSSYYMCWVRQAPGKGLEWIACIYTGSNGDTYYASWANGRFTISKASSTTVTLQMTSLTAADTATYFCARYTYDDDGDYTSFNLWGPGTLVTVSS VL: ALVMTQTPSSVSADVGGTVTINCQASQNIYRNLAWYQQKPGQRPKLLIYGASNLEPGVPSRFKGSGSGTEFTLTISDLECDDAATYYCQSVGYSGSVDTFFYAFGGGTEVVVKG displays koff of 0.000196
